- Test target: T1, Bcl-w, Q92843
- T1 chain: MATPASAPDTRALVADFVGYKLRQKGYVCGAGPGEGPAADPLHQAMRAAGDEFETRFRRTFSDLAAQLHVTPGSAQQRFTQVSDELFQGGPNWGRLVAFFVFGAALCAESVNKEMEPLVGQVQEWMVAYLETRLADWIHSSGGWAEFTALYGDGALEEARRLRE
- Test summary: fluorescence polarisation, direct titration of receptor into 10 nM labelled peptide
Measurement type: pKd
Bear in mind: pKd is minus log10 of a mol/L concentration; give just that figure.

# input Form field: reported pKd of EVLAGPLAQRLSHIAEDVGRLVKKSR [ARHGAP4]
# output 6.13

# input Form field: reported pKd of SWFIQSLCAMLKQYADKLEFMHILTR [CASP3]
# output 7.19

# input Form field: reported pKd of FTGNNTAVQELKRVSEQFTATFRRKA [TUBB4Q]
# output 5.60

# input Form field: reported pKd of LCQLSCVSKLMRDVCGSLLQSRGMVI [FBXO30]
# output 5.48
